B1: Subtilisin-chymotrypsin inhibitor-2A, P01053 (parent)
chain: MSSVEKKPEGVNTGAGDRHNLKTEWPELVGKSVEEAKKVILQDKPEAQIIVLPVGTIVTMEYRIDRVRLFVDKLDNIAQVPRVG

- Variants of: B1
- Assay context: Hordeum vulgare; pH 3; Thermal; DSC; MES 450 mM; reversible: yes; structure 2CI2; whole UniProt chain shown
Classify by measured change of melting temperature, mutant - wild type (higher = more stable): rule met if it is equal to or exceeds -20 °C, rule not met if it is smaller.

## Task Given the entry MSSVEKKPEGVNTGAGDRHNLKTEWPELVGKSVEEAKKVILQDKPEAQIIVLPVGTIVTMEYRIDRVRLFVDKLDNVAQVPRVG , answer whether its change of melting temperature, mutant - wild type (higher = more stable) meets or surpasses -20 °C.
## Result rule met

## Task Given the entry MSSVEKKPEGVNTGAGDRHNLKTEWPELVGKSVEEAKKVVLQDKPEAQIIVLPVGTIVTMEYRIDRVRLFVDKLDNIAQVPRVG , answer whether its change of melting temperature, mutant - wild type (higher = more stable) meets or surpasses -20 °C.
## Result rule met

## Task Given the entry MSSVEKKPEGVNTGAGDRHNLKTEWPEAVGKSVEEAKKVILQDKPEAQIIVLPVGTIVTMEYRIDRVRLFVDKLDNIAQVPRVG , answer whether its change of melting temperature, mutant - wild type (higher = more stable) meets or surpasses -20 °C.
## Result rule met

## Task Given the entry MSSVEKKPEGVNTGAGDRHNLKTEWPELVGKSVEEAKKVILQDKPEAQIIVLPVGTIVTMEYRIDRVRLFADKLDNIAQVPRVG , answer whether its change of melting temperature, mutant - wild type (higher = more stable) meets or surpasses -20 °C.
## Result rule met

## Task Given the entry MSSVEKKPEGVNTGAGDRHNLKTEWPELVGKSVEEAKKAILQDKPEAQIIVLPVGTIVTMEYRIDRVRLFVDKLDNIAQVPRVG , answer whether its change of melting temperature, mutant - wild type (higher = more stable) meets or surpasses -20 °C.
## Result rule met

## Task Given the entry MSSVEKKPEGVNTGAGDRHNLKTEWPELVGKSVEEAKKVILQDKPEAQIIVLPVGTIVTMEYRIDRVRLFVDKLDNAAQVPRVG , answer whether its change of melting temperature, mutant - wild type (higher = more stable) meets or surpasses -20 °C.
## Result rule not met

Origin of the recorded values: FireProtDB (doi:10.1021/bi00093a001)
